experimental.target: PPARδ-RXRα heterodimer (Homo sapiens, UniProt Q03181)
assay.name: PPARδ-RXRα heterodimer ligand activity (luciferase reporter, PPARδ:RXRα:4ERPP/CHO-K1 cells)
Format: cell-based
Parameters: expressed in transfected cells
details: concentration for 50% of maximum fold induction of luciferase, 48 hrs
assay.metric: EC50 (µM)
Lab book: enter the figure in µM, no units written.

Please give the measured EC50 for this compound: Cc1oc(-c2ccccc2)nc1COc1ccc(Sc2nc(-c3ccccc3)c(CCC(=O)O)s2)cc1
0.67

Query (compound): Cc1oc(-c2ccccc2)nc1COc1ccc(Sc2nc(-c3ccccc3)c(CCC(=O)O)o2)cc1 ; field requested: EC50
2.1

---

experimental.target: PPARδ-RXRα heterodimer (Homo sapiens)
Sequence (Q03181 1-441): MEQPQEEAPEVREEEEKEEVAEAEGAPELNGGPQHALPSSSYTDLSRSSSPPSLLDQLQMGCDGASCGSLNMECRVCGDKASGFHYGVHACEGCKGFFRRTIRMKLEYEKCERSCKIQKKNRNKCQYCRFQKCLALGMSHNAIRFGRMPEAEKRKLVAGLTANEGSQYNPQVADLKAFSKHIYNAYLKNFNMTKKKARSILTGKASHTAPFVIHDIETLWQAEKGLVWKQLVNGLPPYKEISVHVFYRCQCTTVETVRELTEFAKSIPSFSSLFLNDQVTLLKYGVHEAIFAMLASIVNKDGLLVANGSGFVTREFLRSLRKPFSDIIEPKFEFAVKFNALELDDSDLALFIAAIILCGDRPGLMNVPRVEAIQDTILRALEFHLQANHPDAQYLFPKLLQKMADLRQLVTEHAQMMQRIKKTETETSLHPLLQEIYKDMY
Sequence (P19793 1-462 partner): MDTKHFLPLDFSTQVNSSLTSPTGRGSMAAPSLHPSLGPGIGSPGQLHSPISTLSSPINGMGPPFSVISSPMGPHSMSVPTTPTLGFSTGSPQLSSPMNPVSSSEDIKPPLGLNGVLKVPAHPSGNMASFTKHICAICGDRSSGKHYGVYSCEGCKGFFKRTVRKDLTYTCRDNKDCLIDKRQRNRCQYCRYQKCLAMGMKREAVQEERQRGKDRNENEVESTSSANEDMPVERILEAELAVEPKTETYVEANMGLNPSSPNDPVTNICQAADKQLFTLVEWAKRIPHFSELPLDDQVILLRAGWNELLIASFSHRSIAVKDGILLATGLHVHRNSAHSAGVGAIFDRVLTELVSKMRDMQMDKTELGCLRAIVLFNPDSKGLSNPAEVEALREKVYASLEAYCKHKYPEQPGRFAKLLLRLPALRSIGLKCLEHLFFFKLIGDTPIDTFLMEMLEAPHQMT
assay.name: PPARδ-RXRα heterodimer ligand activity (luciferase reporter, transfected COS-1 cells)
Type: cell-based
Set-up: expressed in transfected cells; host or cells: COS-1 (transient, lipofectamine)
details: concentration for 50% of maximum fold induction of luciferase, 48 hrs
Record form. Attribute: EC50. Fill in for each entry.
Field: value (include unit after the number)

What reported EC50 corresponds to Cc1nc(SCc2cccc(OCc3nc(-c4ccccc4)oc3C)c2)sc1CC(=O)O on PPARδ-RXRα heterodimer (Homo sapiens)?
260 nM

Can you look up EC50 on PPARδ-RXRα heterodimer (Homo sapiens) for Cc1nc(SCc2ccc(OCc3nc(-c4ccccc4)oc3C)cc2)sc1CC(=O)O ?
680 nM
